Origin of measurements: PubChem BioAssay (NCATS)

# assay.target: Cellular tumor antigen p53 (Homo sapiens)
# assay: Primary qHTS for small molecule compounds that upregulate eGFP-tagged delta133p53alpha (in N-terminal) cells. (AID 2060322);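 further: cells pre-induced with doxycycline then dosed without doxycycline; series mostly up to about 56 µM; 0% = DMSO vehicle and 100% = reference activator; nearly all actives have a fitted effect of over 75% in size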
# settings: NCI-H358 eGFP-delta133p53alpha fluorescence, 24 h; hits give high values
Records with an inconclusive call do not appear. Calls of active or inactive are those of the source. The call rests on the fitted dose curve; in most records, active means well fitted activation curve with a large enough effect; inconclusive means small, poorly fitted or top-dose-only effect; inactive means no such curve, though single readings can be large or run the other way.
This listing pairs compounds with measured activation.

Entry C=C(C)[C@@H]1CC[C@]2(C(=O)O)CC[C@]3(C)C(CCC4[C@]5(C)C(CC[C@]43C)C(C)(C)[C@@H](O)[C@@H]5C(=O)O)C12 (some centres not stated) — recorded activation = -18.3% (inactive)

Now for another entry.
Entry C[C@@H]1O[C@@H](O[C@H]2[C@H](O)[C@@H](O[C@@H]3O[C@H](CO)[C@H](O)[C@H](O)[C@H]3O)[C@H](O[C@H]3CC[C@@]4(C)C(CC[C@]5(C)C4CC=C4[C@@H]6CC(C)(C)CC[C@]6(C(=O)O[C@@H]6O[C@H](CO)[C@@H](O)[C@H](O)[C@H]6O)CC[C@]45C)C3(C)C)O[C@@H]2C(=O)O)[C@H](O)[C@H](O)[C@H]1O (some centres not stated) — recorded activation = 5.34% (inactive)
